system.under.test: beta-Lactamase (Enterobacter cloacae, UniProt P05364)
Construct: endogenous in cells; host or cells: Enterobacter cloacae TN 1282 (producing strain)
Sequence (P05364 21-381): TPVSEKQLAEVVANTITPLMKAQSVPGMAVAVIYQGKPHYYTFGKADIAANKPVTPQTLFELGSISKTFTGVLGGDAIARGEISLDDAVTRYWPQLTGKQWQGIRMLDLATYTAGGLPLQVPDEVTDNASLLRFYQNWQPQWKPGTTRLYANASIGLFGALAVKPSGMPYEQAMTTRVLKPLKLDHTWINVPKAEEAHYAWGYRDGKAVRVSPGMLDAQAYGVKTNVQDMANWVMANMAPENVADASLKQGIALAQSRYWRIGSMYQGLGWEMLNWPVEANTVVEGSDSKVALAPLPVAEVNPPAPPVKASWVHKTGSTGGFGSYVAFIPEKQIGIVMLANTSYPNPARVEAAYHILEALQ
assay.details: beta-Lactamase-inhibitory activity, producing strain Enterobacter cloacae TN 1282
Type: biochemical
recorded.conditions: read-out: beta-Lactamase-inhibitory activity [1D50] (converted)
Counter-ions that a name gives are not always drawn.
The entries below are paired with their reported IC50.
The response must be a number in µM with no trailing unit.

Recorded IC50, per entry:
- compound: "CC(=O)N/C=C\\SC1=C(C(=O)O)N2C(=O)[C@@H](C(C)(C)OS(=O)(=O)O)[C@H]2C1 [Ih, disodium salt]"
  IC50, µM: 0.00787
- compound: "CC(=O)N/C=C\\[S@@+]([O-])C1=C(C(=O)O)N2C(=O)[C@@H](C(C)(C)OS(=O)(=O)O)[C@H]2C1 [Ib, disodium salt]"
  IC50, µM: 0.036

Now take the following compound into account.
Challenge: Respond only with IC50 recorded for CC(=O)N/C=C\SC1=C(C(=O)[O-])N2C(=O)[C@@H](C(C)(C)O)[C@H]2C1.[Na+] [Ig]
Response given: 0.0861
